# Tested on: SMN2 minigene mRNA (SMN2-A minigene) in HEK293H cells
# ASSAY_DETAILS: SMN2 minigene mRNA splicing RT-qPCR assay in cultured cells
# Format: cell-based, human
# SETUP_CONDITIONS: Homo sapiens, HEK293-H; concentration increasing full length SMN2 mRNA 1.5-fold relative to vehicle-treated cells; HEK293H cells with SMN2-A minigene, 24 hours, 7-point concentration data; read-out: EC1.5x for production of full length SMN2 mRNA
# Method: The reverse transcription-quantitative PCR-based (RT-qPCR) assay is used to quantify the level of the full length SMN2 minigene mRNA containing SMN2 exon 7 in a HEK293H cell line stably transfected with said minigene and treated with a test compound. Protocol. […] The increase of SMN2 minigene FL mRNA relative to that in cells treated with vehicle control is determined from real-time PCR data using a modified ΔΔCt method (as described in Livak and Schmittgen, Methods, 2001, 25:402-8). […]
MEASURE: EC (1.5-fold increase)

• CCc1nc(C)cn2nc(-c3cc(=O)n4cc(N5CCN[C@@H](C)C5)cc(C)c4n3)cc12 = < 0.1 µM
• CCc1nc(C)cn2nc(-c3cc(=O)n4cc(C5CCN(C6COC(C)(C)OC6)CC5)ccc4n3)cc12 = 1 to 3 µM
• Cc1cn2nc(-c3cc(=O)n4cc(N5C[C@@H](C)N[C@@H](C)C5)cc(C)c4n3)cc2c(C)n1 = 0.3 to 1 µM
• Cc1cn2nc(-c3cc(=O)n4cc(N5CCC(CN6CCCCC6)CC5)ccc4n3)cc2c(C)n1 = 0.3 to 1 µM
• CCc1nc(C)cn2nc(-c3cc(=O)n4cc(OCCCN5CCOCC5)ccc4n3)cc12 = < 0.1 µM
• CCc1nc(C)cn2nc(-c3cc(=O)n4cc(N5CCN[C@H](C)C5)cc(C)c4n3)cc12 = < 0.1 µM

----------
Some compounds, each annotated with its measured melting point.
MEASURE: melting point

* Cc1nc2ccc(-c3cc(=O)n4cc(C5=CCN(C)CC5)ccc4n3)cc2o1 | 132 to 135 °C
* C[C@@H]1CN(c2ccc3nc(-c4ccc5c(c4)OCO5)cc(=O)n3c2)CCN1 | 195 to 197 °C
* Cc1nc2ccc(-c3cc(=O)n4cc(N5CCN(C)[C@H](C)C5)ccc4n3)cc2o1 | 181 to 187 °C
* Cc1cn2cc(-c3ccc4nc(C5CCNCC5)cc(=O)n4c3)cc(F)c2n1 | 295 to 298 °C
* CCc1cc(C2=CCN(CC)CC2)cn2c(=O)cc(-c3ccc(OC)c(OC)c3)nc12 | 148 to 153 °C
* Cc1cn2cc(-c3cc(=O)n4cc(N5C[C@@H](C)N[C@@H](C)C5)ccc4n3)cc(C3CC3)c2n1 | 205 to 209 °C
* Cc1cc(-c2cc(=O)n3cc(N4CCN(C)CC4)ccc3n2)cc2cn(C)nc12 | 216 to 218 °C
* CCCN1CC=C(c2cc(C)c3nc(-c4ccc(OC)c(OC)c4)cc(=O)n3c2)CC1 | 171 to 177 °C
* Cc1cn2cc(-c3cc(=O)n4cc(N5CCN(CCOCCO)[C@@H](C)C5)ccc4n3)cc(Cl)c2n1 | 201 to 205 °C
* Cc1nc2c(F)cc(-c3cc(=O)n4cc(C5=CCN(C)CC5)ccc4n3)cc2o1 | 178 to 181 °C
* Cc1nc2c(F)cc(-c3cc(=O)n4cc(N5CCNCC5)ccc4n3)cc2o1 | 184 to 186 °C
* Cc1cn2cc(-c3cc(=O)n4cc(N5C[C@@H](C)N[C@@H](C)C5)ccc4n3)cc(C(F)(F)F)c2n1 | 293 to 296 °C
* Cc1cn2nc(-c3cc(=O)n4cc(C5CCN(C)CC5)ncc4n3)cc2c(C)n1 | 257 to 259 °C
* Cc1cn2cc(-c3cc(=O)n4cc(C5CCN(C)CC5)ccc4n3)cc(Cl)c2n1 | 292 to 296 °C
* CCN1CC=C(c2ccc3nc(-c4ccc5nn(C)cc5c4)cc(=O)n3c2)CC1 | 198 to 200 °C
* CCN1CCC(c2ccc3nc(-c4cc(Cl)c5nc(C)cn5c4)cc(=O)n3c2)CC1 | 240 to 246 °C
* Cc1nc2ccc(-c3cc(=O)n4cc(C5CCN(C)CC5)ccc4n3)cc2s1 | 240 to 242 °C
* Cc1cn2nc(-c3cc(=O)n4cc(N5CC[C@@H](CN)C5)ccc4n3)cc2c(C)n1 | 244 to 246 °C
* CCc1cc(-c2cc(=O)n3cc(N4CCN(C)[C@H](C)C4)ccc3n2)cn2cc(C)nc12 | 217 to 220 °C
* COc1ccc(-c2cc(=O)n3cc(N4CCN5CCC[C@H]5C4)cc(C)c3n2)cc1OC | 183 to 189 °C
* COc1ccc(-c2cc(=O)n3cc(N4CC[C@@H](N(C)C)C4)ccc3n2)cc1F | 188 to 191 °C
* COc1ccc(-c2cc(=O)n3cc(N4C[C@H]5CN(CCO)C[C@H]5C4)ccc3n2)cc1F | 180 to 186 °C
* Cc1cn2cc(-c3cc(=O)n4cc(N5CC[C@H](N(C)C)C5)ccc4n3)cc(F)c2n1 | 294 to 297 °C
* Cc1cn2nc(-c3cc(=O)n4cc(N5CC(N(C)C)C5)ccc4n3)cc2c(C)n1 | 226 to 228 °C
* CCc1nc(C)cn2nc(-c3cc(=O)n4cc(C5CCN(CCCF)CC5)ccc4n3)cc12 | 216 to 218 °C
* Cc1nc(C2CCNCC2)cn2c(=O)cc(-c3ccc4nn(C)cc4c3)nc12 | 229 to 235 °C
* CNC1CCN(c2ccc3nc(-c4ccc(OC)c(F)c4)cc(=O)n3c2)CC1 | 167 to 171 °C
* CCc1nc(C)cn2nc(-c3cc(=O)n4cc(N5CCN(CCF)[C@H](C)C5)ccc4n3)cc12 | 255 to 257 °C
* CCN1CCN(c2ccc3cc(-c4ccc5nc(C)oc5c4)cc(=O)n3c2)C[C@@H]1C | 288 to 290 °C
* CCc1nc(C)cn2nc(-c3cc(=O)n4cc(N5CCN(CC)[C@H](C)C5)ccc4n3)cc12 | 256 to 258 °C
* CCNC1(C)CCN(c2ccc3nc(-c4cc5c(C)nc(C)cn5n4)cc(=O)n3c2)CC1 | 187 to 189 °C
